# Lookup of reported Intrinsic Clearnace MLM keyed by entry
- method.summary: Metabolic study and intrinsic clearance in MLM
- Type: in vitro ADME

Below, 3 compounds whose answers are already recorded.
| compound | Intrinsic Clearnace MLM |
| --- | --- |
| Clc1ccc2c(c1)c(C1=NCCN1)nn2Cc1ccccc1 [NDS100283] | 145.5 μl/min/mg of protein |
| Cc1[nH]c2ccc(Cl)cc2c1C1=NCCN1 [Example-6 of Patent US20040009976, reference compound] | 21.3 μl/min/mg of protein |
| CCn1nc(C2=NCCN2)c2cc(Cl)ccc21 [NDS100282] | 56.4 μl/min/mg of protein |

QUERY: Give the measured Intrinsic Clearnace MLM for Clc1ccc2[nH]nc(C3=NCCN3)c2c1 [NDS100178]
RESULT: 80.8 μl/min/mg of protein

###

- method.summary: Kinetic solubility
- Assay type: physicochemical
- measurement.conditions: kinetic from dmso stock
# Lookup of reported solubility kinetic keyed by entry
Express it in µM; write the number only.

Below, 3 compounds whose answers are already recorded.
| compound | assay.result |
| --- | --- |
| Clc1ccc2c(c1)c(C1=NCCN1)nn2Cc1ccccc1 [NDS100283] | 113 |
| CCn1nc(C2=NCCN2)c2cc(Cl)ccc21 [NDS100282] | 202 |
| Cc1[nH]c2ccc(Cl)cc2c1C1=NCCN1 [Example-6 of Patent US20040009976, reference compound] | 196 |

--- query ---
QUERY: Give the measured solubility kinetic for Clc1ccc2[nH]nc(C3=NCCN3)c2c1 [NDS100178]
RESULT: 214

###

- method.summary: Metabolic study in HLM
- Assay type: in vitro ADME
recorded.endpoint: Metabolic Study HLM Mean % PCR* (%)
Express it in %; write the number only.

| compound | Metabolic Study HLM Mean % PCR*, % |
| --- | --- |
| Clc1ccc2[nH]nc(C3=NCCN3)c2c1 | 79.70 |
| Cc1[nH]c2ccc(Cl)cc2c1C1=NCCN1 [Example-6 of Patent US20040009976, reference compound] | 99.11 |
| CCn1nc(C2=NCCN2)c2cc(Cl)ccc21 | 71.71 |

--- query ---
QUERY: Give the measured Metabolic Study HLM Mean % PCR* for `Clc1ccc2c(c1)c(C1=NCCN1)nn2Cc1ccccc1`
RESULT: 86.02

###

# Lookup of reported Metabolic Study MLM Mean % PCR* keyed by entry
- method.summary: Metabolic study and intrinsic clearance in MLM
- Assay type: in vitro ADME
Express it in %; write the number only.

| compound | scale.unit | assay.result |
| --- | --- | --- |
| Clc1ccc2c(c1)c(C1=NCCN1)nn2Cc1ccccc1 | % | 19.09 |
| Cc1[nH]c2ccc(Cl)cc2c1C1=NCCN1 [Example-6 of Patent US20040009976, reference compound] | % | 64.83 |
| CCn1nc(C2=NCCN2)c2cc(Cl)ccc21 | % | 33.27 |

--- query ---
QUERY: Give the measured Metabolic Study MLM Mean % PCR* for `Clc1ccc2[nH]nc(C3=NCCN3)c2c1`
RESULT: 38.84
